# systemName: T1, rhCD39-ECD-His (R&D Systems) (human, UniProt P49961 38-478)
# T1 construct: Bought protein; that entry runs on through the C-terminal transmembrane and cytoplasmic residues; also called recombinant human CD39 extracellular domain; soluble recombinant human CD39 (ENTDP1) ECD; not shown: His tag
# T1 sequence: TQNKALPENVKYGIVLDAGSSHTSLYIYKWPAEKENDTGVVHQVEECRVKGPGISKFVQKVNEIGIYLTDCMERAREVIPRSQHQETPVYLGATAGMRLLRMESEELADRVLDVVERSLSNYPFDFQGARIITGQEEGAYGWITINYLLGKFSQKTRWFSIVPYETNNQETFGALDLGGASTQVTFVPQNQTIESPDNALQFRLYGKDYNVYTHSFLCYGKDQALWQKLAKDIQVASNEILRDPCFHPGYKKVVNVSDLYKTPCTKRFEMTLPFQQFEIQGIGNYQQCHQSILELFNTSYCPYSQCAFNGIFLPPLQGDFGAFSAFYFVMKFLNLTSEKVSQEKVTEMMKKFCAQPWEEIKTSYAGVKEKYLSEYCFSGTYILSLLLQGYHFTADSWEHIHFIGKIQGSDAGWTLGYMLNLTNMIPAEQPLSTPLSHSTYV
# methodDescription: BLI (Octet), IgG on anti-human Fc sensor, rhCD39-ECD-His 10-300 nM, 1:1 fit
assayMetric: koff (s⁻¹)

# binder, uom, readoutValue
measured = [
    ("31873 (antibody, V domains shown) VH: QVQLVQSGAEVKKPGSSVKVSCKASGGTFSKYGISWVRQAPGQGLEWMGSIIPEFGIANYAQKFQGRVTITADESTSTAYMELSSLRSEDTAVYYCARESGGYRDHRLGVWGQGTMVTVSS VL: EIVMTQSPATLSVSPGERATLSCRASQSVGSNLAWYQQKPGQAPRLLIYGASTRASGIPARFSGSGSGTEFTLTISSLQSEDFAVYYCQQYLLWPLTFGGGTKVEIKR", "s⁻¹", 0.000286),
    ("27589 (antibody, V domains shown) VH: QVQLVQSGAEVKKPGSSVKVSCKASGGTFSSYAISWVRQAPGQGLEWMGGIIPIFGTANYAQKFQGRVTITADESTSTAYMELSSLRSEDTAVYYCARDSGYHRHYSDYWGQGTLVTVSS VL: DIQMTQSPSTLSASVGDRVTITCRASQSISSWLAWYQQKPGKAPKLLIYKASSLESGVPSRFSGSGSGTEFTLTISSLQPDDFATYYCQQYGLFPITFGGGTKVEIKR", "s⁻¹", 0.0385),
    ("31421 (antibody, V domains shown) VH: QVQLVQSGAEVKKPGASVKVSCKASGYTFFSYYMYWVRQAPGQGLEWMGVINPLGGGTSYAQKFQGRVTMTRDTSTSTVYMELSSLRSEDTAVYYCARGKREGGTEYLRHWGQGTLVTVSS VL: EIVLTQSPGTLSLSPGERATLSCKASESVSSSYLAWYQQKPGQAPRLLIYYASSRATGIPDRFSGSGSGTDFTLTISRLEPEDFAVYYCQQYHRRITFGGGTKVEIK", "s⁻¹", 0.00526),
]
